Assay System: human TPH1 (Homo sapiens, UniProt P17752)
Sequence (P17752 1-444): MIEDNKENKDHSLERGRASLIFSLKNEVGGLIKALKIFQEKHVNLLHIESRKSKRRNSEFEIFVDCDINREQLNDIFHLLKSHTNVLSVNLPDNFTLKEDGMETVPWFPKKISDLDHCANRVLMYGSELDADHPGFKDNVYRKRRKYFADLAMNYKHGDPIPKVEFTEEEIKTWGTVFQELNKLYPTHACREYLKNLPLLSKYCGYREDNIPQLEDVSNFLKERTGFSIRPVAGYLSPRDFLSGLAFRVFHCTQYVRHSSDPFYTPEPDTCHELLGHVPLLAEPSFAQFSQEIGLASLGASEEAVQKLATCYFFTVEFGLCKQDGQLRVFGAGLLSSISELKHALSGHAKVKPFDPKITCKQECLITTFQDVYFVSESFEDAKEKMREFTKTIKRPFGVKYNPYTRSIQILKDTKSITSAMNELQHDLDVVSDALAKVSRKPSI
Assay Method Text: biochemical
pIC50: −log10 of the molar value.
Quantity: pIC50

a: O=C(COc1ccc2ccccc2c1)N1CCc2nc3cc(C(F)(F)F)ccn3c2C1c1ccnc(Cl)c1 (stereo not drawn)
b: COc1ccc(C2c3c(nc4cc(C(F)(F)F)ccn34)CCN2C(=O)COc2cc(C)ccc2Cl)cc1OC (stereo not drawn)
Ask: Which item exceeds the other in pIC50, a or b ? Select an item and report its label.
Reply: b
(b: 7.19, a: 6.71)

I: O=C(COc1ccc(CN2CCOCC2)cc1Cl)N1CCc2nc3cc(C(F)(F)F)ccn3c2C1c1ncc2ccccn12 (stereo not drawn)
II: COc1ccc(C2c3c(nc4cc(C(F)(F)F)ccn34)CCN2C(=O)COc2ccc3ccccc3c2)cn1 (stereo not drawn)
III: CS(=O)(=O)Nc1ccc(OCC(=O)N2CCc3nc4c(F)cccn4c3C2c2ccc(Cl)cc2F)c(Cl)n1 (stereo not drawn)
Ask: Rank entries according to their pIC50, from the largest number down. Please, when replying, give the labels in the order that was requested.
Reply: II, I, III
(II: 7.28, I: 6.89, III: 5.58)
